Test system: SNB-75 CNS
TEST NAME: NCI tumour cell line growth inhibition, 48 h
Could you please report measured TGI for the items listed next?

Examples from the recorded data:
CCCCCCCCC[n+]1cccc(C2C(C(=O)OCC)=C(C)NC(C)=C2C(=O)OCC)c1 = 11.6 µM
O=C(NCc1ccccc1)c1c(O)c2ccccc2[nH]c1=O = > 100 µM
COc1cccc2c1[C@]1(O)C(O)CCCC21 (stereo partly specified) = > 100 µM
COC(=O)C(C(=O)OC)C1CC(=O)c2c(Br)sc(Br)c21 (stereo unspecified) = 75 µM
O=C1OC(c2ccccc2)=N/C1=C/N1CCCC1C(=O)O (stereo unspecified) = > 100 µM

Please look at the items below and tell me TGI for each one, in order.
1. COC(=O)C1=C(C)NC2(C)OC(C)(O)C(C(C)=O)C12C(C)=O (stereo unspecified)
2. S=c1[nH]nc(SCc2ccccc2Cl)c2[nH]cnc12
3. OC(O)(C(F)(F)F)C(F)(F)F
4. CCCCCCc1cn([C@H]2C[C@H](O)[C@@H](CO)O2)c(=O)[nH]c1=O
5. C=CCn1c(=O)c2ccccc2[n+]2c(-c3cccc([N+](=O)[O-])c3)csc12
6. CCOC(=O)C1=C(C)N(c2ccc(C)cc2)C2(O)C=CC(=O)C3=C(O)c4ccccc4C(=O)C312 (stereo unspecified)

> 100 µM
> 100 µM
> 100 µM
> 100 µM
69.9 µM
68.6 µM

* * *

Tested on: OVCAR-5 ovarian
TEST NAME: NCI tumour cell line growth inhibition, 48 h
READOUT NAME: TGI

For orientation, consider the following solved cases.
COC1=CC(=O)c2c(cc(COP(=O)(N(C)CCBr)N(C)CCBr)n2C)C1=O = 4.35 µM
O=C(O)c1oc2cccc3c2c1CCC3 = > 100 µM
Cc1ccc([N+](=O)[O-])cc1NC(=O)C(=O)C1CCC2=C(Sc3ccccc3N2)C1=O (configuration not stated) = > 100 µM

Quick one: give me TGI for each item below, same order please.
1. O=c1/c(=C/c2ccc(-c3ccc(Cl)cc3Cl)o2)sc2n1[C@@H](c1ccc3c(c1)OCO3)C=C(c1cc(F)c(Cl)cc1Cl)N=2
2. CCC1OC(/C(C)=C/C(C)/C=C/C2C(C)C2/C=C/C2OC(CC(=O)O)CC(O)C2O)CC=C1C (configuration not stated)
3. Cc1ccc(C)c2c1CCc1cc3ccccc3nc1-2
4. CS(=O)(=O)Nc1cc(-c2ccc3ncnc(Nc4cccc(Cl)c4F)c3c2)cnc1Cl

1: > 100 µM; 2: > 50 µM; 3: > 100 µM; 4: 19.1 µM

* * *

System: MCF7 breast
TEST NAME: NCI tumour cell line growth inhibition, 48 h; in the data active = GI50 below about 0.43 µM; inactive = the rest
Give your call using only these classes: active, inactive

Known results for compounds:
O=C(O)c1cc2c(c3ccsc13)-c1ccccc1CC2 = inactive
CCC(=O)OC1=CN2C(=NC(c3ccc(N)cc3)=CC2c2cc(OC)c(OC)c(OC)c2)S1 (stereo not given) = inactive
Cc1ccc(/C=C2\CN(Cc3cn(CCNc4ccnc5cc(Cl)ccc45)nn3)C/C(=C\c3ccc(C)cc3)C2=O)cc1 = inactive

Outcome logged for O=C(Nc1ccc(-c2ccnc(Nc3ccc(N4CCOCC4)cc3)n2)cc1)C1CCCN1 (stereo not given) in this assay:
inactive

What classification did CC(C)=CCC/C(C)=C/[C@H]1OC(=O)CC12C[C@H](O)C=CC2=O (stereo not given in full) end up with in this test?
active

* * *

Assign TGI to each entry below.
System: SF-539 CNS
TEST NAME: NCI tumour cell line growth inhibition, 48 h

CCC1OC(/C(C)=C/C(C)/C=C/C2C(C)C2/C=C/C2OC(CC(=O)O)CC(O)C2O)CC=C1C (stereo not given) = > 50 µM

Please state TGI for every molecule in the list that follows.
1. Cc1ccc(C)c2c1CCc1cc3ccccc3nc1-2
2. CC(=O)OCC(OC(C)=O)C(OC(C)=O)C(OC(C)=O)C(=O)CNn1c(-c2ccccc2Cl)nc2ccc(Br)cc2c1=O (stereo not given)
3. C[C@H]1CC2=CC(=O)CC[C@]2(C)[C@H]2CC[C@@]3(C)[C@@H](CC[C@]3(C)O)[C@H]12
4. COc1ccc(/C=C/c2cnc3ccccc3n2)cc1OC

> 100 µM
> 100 µM
> 100 µM
> 100 µM

* * *

Kindly state TGI for each of the entries shown.
Tested on: MALME-3M melanoma
TEST NAME: NCI tumour cell line growth inhibition, 48 h

// below: answered molecules
CC(=O)Nc1cc2cc(NS(=O)(=O)c3cc(C(F)(F)F)cc(C(F)(F)F)c3)ccc2oc1=O = > 100 µM
COc1ccccc1N1C(=O)/C(=C\c2cccc(Oc3ccccc3)c2)S(=O)(=O)C1c1ccccc1 (centres undefined) = > 100 µM
CC(C)(O)CCC(O)C(C)(O)C1CCC2(O)C3=CC(=O)C4(O)CC(O)C(O)CC4(C)C3CCC12C (centres undefined) (tested in a mixture with another compound) = > 100 µM
COC(=O)c1nn(C(=N)c2ccc(Cl)cc2)c2c1CCCCC2 = > 100 µM
C[C@@H]1OCC(O)C([C@H]2OC(c3ccccc3)=N[C@H]2CO)O1 (some centres undefined) = > 100 µM

Below are 8 molecules. Give each one its TGI.
1. COC(=O)c1c(C#C[Si](C)(C)C)c(C#C[Si](C)(C)C)c(C#C[Si](C)(C)C)c(C#C[Si](C)(C)C)c1C(=O)OC
2. CCCCCCCCCCCCCCC(O)C1CCC(C(O)CCC(O)CCCCCC(O)CC2=CC(C)OC2=O)O1 (centres undefined)
3. COc1cc(CC2CC(c3ccc4c(c3)OCO4)OC2=O)cc(OC)c1OC (centres undefined)
4. CCCCCCCCC[n+]1cccc(C2C(C(=O)OCC)=C(C)NC(C)=C2C(=O)OCC)c1
5. S=c1[nH]nc(SCc2ccccc2Cl)c2[nH]cnc12
6. C=CCn1c(=O)c2ccccc2[n+]2c(-c3cccc([N+](=O)[O-])c3)csc12
7. CC(C)c1nccn1Cc1ccc(Cl)cc1Cl
8. C/C=C/C(=O)[O-].N.N.N.N.N.[Co+3].[O-][Cl+3]([O-])([O-])[O-]

> 100 µM
13.6 µM
> 100 µM
4.67 µM
> 100 µM
> 100 µM
> 100 µM
> 100 µM

# per-item lookup of TGI; items listed below
1. CN(C)c1ccc(N=C(C#N)c2nc(N)nc(N3CCN(c4ccccc4)CC3)n2)cc1
2. CS(=O)(=O)Nc1cc(-c2ccc3ncnc(Nc4cccc(Cl)c4F)c3c2)cnc1Cl
3. C[C@H]1CCC/C=C/[C@@H]2C[C@H](O)C[C@H]2[C@H](O)[C@@H](SC2OC(CO)C(O)C(O)C2O)CC(=O)O1 (some centres undefined)
4. Cc1cc(Cl)ccc1NC(=O)CCCC(=O)C(C(=O)c1ccccc1)c1ccccc1 (centres undefined)
5. O=c1cccccc1NCCNc1cccccc1=O
6. CC(C)CC(NC(=O)C(COc1ccc([N+](=O)[O-])cc1)Cc1ccccc1)C(=O)Nc1ccccc1 (centres undefined)

1: 1.16 µM; 2: 7.66 µM; 3: 69.4 µM; 4: > 100 µM; 5: 47.9 µM; 6: 18 µM

* * *

Test system: SNB-19 CNS
TEST NAME: NCI tumour cell line growth inhibition, 48 h; in the data active means GI50 below about 0.43 µM; inactive means the rest
API: response.call in active, inactive

Worked cases, answers included:
CCC1OC(/C(C)=C/C(C)/C=C/C2C(C)C2/C=C/C2OC(CC(=O)O)CC(O)C2O)CC=C1C (centres undefined) = inactive
CCN(CC)CCOc1nc2cc(OC)c(OC)cc2c2c1-c1ccc(OC)cc1C2=O = inactive
Cc1nc2sc(C(=O)Nc3cccc(Cl)c3C)c(N)c2cc1C(C)O (centres undefined) = active

Below: the item to evaluate.
Given `COc1cc(/C=C\c2cc(OC)c(OC)c(OC)c2)cc(NS(=O)(=O)c2cccc(Cl)c2)c1OC` , state the outcome it received in this test.
active

* * *

Test system: HL-60(TB) leukemia
TEST NAME: NCI tumour cell line growth inhibition, 48 h
READOUT NAME: TGI

Solved entries:
CC[C@H](C)[C@H](NC(=O)c1nccn1C)C(=O)N(C)[C@H](C[C@@H](OC(C)=O)c1nc(C(=O)N[C@@H](Cc2ccccc2)C[C@H](C)C(=O)OC)cs1)C(C)C = 1.78 µM
COC(=O)C[C@H](CCSC)NC(=O)C[C@H](CCSC)NC(=O)C[C@H](CCSC)NC(=O)OC(C)(C)C = > 100 µM
CCOC(=O)N1C(=S)C(C(=O)OC)(C(=O)OC)N=C1C = > 100 µM

API: the following record is the query input.
Item under review: `CN(C)c1ccc(N=C(C#N)c2nc(N)nc(N3CCN(c4ccccc4)CC3)n2)cc1` . Reported TGI?
> 50 µM

* * *

Assignment: determine reported TGI for the given compounds.
Tested on: NCI/ADR-RES ovarian
TEST NAME: NCI tumour cell line growth inhibition, 48 h

Worked examples, 8 compounds total:
C=C1C[C@@H]2[C@H](CC[C@]3(C)C(=O)CC[C@@H]23)[C@@]2(C)C=CC(=O)C=C12 = > 92 µM
C[C@]12CC[C@H]3[C@@H](CCC4=C[C@@H](OC5OCC(OC6OC(CO)C(O)C(O)C6O)C(O)C5O)CC[C@@]43C=O)[C@@]1(O)CCC2C1=CC(=O)OC1 (stereo partly drawn) = 3.28 µM
CCC1CCC2c3c([nH]c4ccccc34)C3C(=O)N(c4ccc(OC)cc4)C(=O)C3C2C1 (stereo not drawn) = > 100 µM
CN(C)c1ccc(N=C(C#N)c2nc(N)nc(N3CCN(c4ccccc4)CC3)n2)cc1 = > 50 µM
CC(C)(O)CCC(O)C(C)(O)C1CCC2(O)C3=CC(=O)C4(O)CC(O)C(O)CC4(C)C3CCC12C (stereo not drawn) (tested in a mixture with another compound) = > 100 µM
COc1cc(/C=C/c2cc(/C=C/c3ccc(O)c(OC)c3)[nH]c(=O)n2)ccc1O = > 100 µM
NC1CCCCC1N.O=S(=O)([O-])CCCN1CCN(CCO)CC1.O=S(=O)([O-])CCCN1CCN(CCO)CC1.[Pt+4] = > 37 µM
C[C@H]1CC2=CC(=O)CC[C@]2(C)[C@H]2CC[C@@]3(C)[C@@H](CC[C@]3(C)O)[C@H]12 = > 86.5 µM

Give TGI for all compounds that follow.
1. Cn1c(O)c(N=NC(N)=S)c2ccccc21
2. S=C(Nc1ccccc1)N1CCn2c1nsc2=Nc1ccccc1
3. O=C(Nc1ccc(-c2ccnc(Nc3ccc(N4CCOCC4)cc3)n2)cc1)C1CCCN1 (stereo not drawn)
4. Cc1ccc(/C=C2\CN(Cc3cn(CCNc4ccnc5cc(Cl)ccc45)nn3)C/C(=C\c3ccc(C)cc3)C2=O)cc1
5. Cc1ccc(S(=O)(=O)c2ccsc2N)cc1
6. O=C(Nc1nc(C23CC4CC(CC(C4)C2)C3)cs1)c1cc2cc([N+](=O)[O-])ccc2oc1=O
7. Cc1nn2c(/C=C3\C(=O)Nc4ccccc43)c(C)nc2s1
8. CC1(C)CC2(C)OC(=N)C1(C#N)C2(C#N)C#N (stereo not drawn)

1. > 100 µM
2. > 100 µM
3. 44.5 µM
4. 5.14 µM
5. > 100 µM
6. > 100 µM
7. 99 µM
8. 29.5 µM

Batch: TGI for all items listed.
1. O=c1[nH]cnc2nc(-c3ccc(N(CCCl)CCCl)cc3)[nH]c12
2. C=C(C)[C@@H]1CC[C@]2(C)[C@H](CC=C3[C@@H]4[C@H](C)[C@@H](C)CC[C@]4(CO)CC[C@]32C)[C@@]1(C)CCCN
3. Cc1[nH]n(-c2ccccc2)c(=O)c1C(=O)c1ccccc1
4. Cc1cccc2c1C(=O)[C@@](C)([C@]1(C)Nc3cccc(C)c3C1=O)N2
5. Nc1ccc(-c2nc3ccccc3s2)cc1
6. CC1(O)C(=O)OC2CC([C@]3(O)CCC4[C@@H]5C[C@H]6O[C@]67[C@@H](O)C=CC(=O)[C@]7(C)C5CC[C@@]43C)C1(C)C2 (stereo partly drawn)
7. Cn1c(=O)c2[nH]c(CCC(=O)O)nc2n(C)c1=O
8. COC(=O)C1=C(C)NC2(C)OC(C)(O)C(C(C)=O)C12C(C)=O (stereo not drawn)

1. > 100 µM
2. 2.17 µM
3. > 25 µM
4. > 100 µM
5. 56.4 µM
6. > 100 µM
7. > 100 µM
8. > 100 µM

Record TGI per entry; entries follow.
1. O=C(NCc1cccnc1)C(=O)NCc1cccnc1
2. S=c1[nH]nc(SCc2ccccc2Cl)c2[nH]cnc12
3. COc1cc(S(=O)(=O)N/N=C/c2cc(Br)c(O)c(OC)c2)c(OC)cc1NC(C)=O

1: > 100 µM; 2: > 100 µM; 3: > 100 µM

Required: TGI, one value per compound below.
1. CC(=O)Nc1cc2cc(NS(=O)(=O)c3cc(C(F)(F)F)cc(C(F)(F)F)c3)ccc2oc1=O
2. N#C/C(=C\c1cccnc1)c1nc2ccccc2o1
3. CN(C)CCNc1c2c(c(NCCN(C)C)c3c(CO)c[nH]c13)C(=O)c1ccccc1C2=O
4. CC1(C)O[C@@H](CP(c2cccc3ccccc23)c2cccc3ccccc23)[C@H](CP(c2cccc3ccccc23)c2cccc3ccccc23)O1

1. > 100 µM
2. > 100 µM
3. 22.7 µM
4. > 100 µM

// provenance: PubChem BioAssay (NCI)
